The origin of these recorded values is patent US20230129258A1.

Assay: Pharmacokinetics in SD rats
Assay type: in vivo
Settings: rat, in vivo, iv, IV Inf (15 minutes); read-out: T1/2 (converted)
Description: Male SD Rats were dosed with each heterotandem Bicycle peptide complex formulated in 25 mM Histidine HCl, 10% sucrose pH 7 by IV bolus or IV infusion (15 minutes). Serial bleeding (about 80 μL blood/time point) was performed via submandibular or saphenous vein at each time point. […] Plasma concentration versus time data were analyzed by non-compartmental approaches using the Phoenix WinNonlin 6.3 software program. […]
Starred links: 1 amine or outer side, 2 acyl side, 3 side chain; linkers in the order of their positions; H or OH if unused. Positions of bridges follow the written chain, without caps; N, C: chain ends. Non-standard residues stand in square brackets, D forms with d. Chains are numbered I, II in the order given. X1 = O=C(CCOCCOCCOCCN(CCOCCOCCOCCn1cc(CCC(=O)[*:2])nn1)CCOCCOCCOCCn1cc(CCC(=O)[*:3])nn1)[*:1]; X2 = O=C(CCSCCC(=O)[*:1])N1CN(C(=O)CC[*:2])CN(C(=O)CC[*:3])C1; TATA = O=C(CC[*:1])N1CN(C(=O)CC[*:2])CN(C(=O)CC[*:3])C1; Hyp = O=C(O)[C@@H]1C[C@@H](O)CN1; hArg = N=C(N)NCCCC[C@H](N)C(=O)O; tBuAla = CC(C)(C)C[C@H](N)C(=O)O; Nle = CCCC[C@H](N)C(=O)O; Mpa = O=C(O)CCS
Field: half-life. Provide a value for each of the substances that follow.
# value in h; strip the unit string

Param item = I: A[hArg]DC[Hyp]LVNPLCLHP[dD]W[hArg]C-NH2 / II: [Mpa][tBuAla]PE[dK]PYCFADPY[Nle]C-NH2 / III: [tBuAla]PE[dK]PYCFADPY[Nle]C-NH2 (linker I:4-I:11-I:18, II:1-II:8-II:15 via TATA; linker I:N-II:5-III:4 via X1; linker III:N-III:7-III:14 via X2) [BCY12730] ; retrieve measured half-life.
2

Also I: A[hArg]DC[Hyp]LVNPLCLHP[dD]W[hArg]C-NH2 / II: Ac-C[tBuAla]PE[dK]PYCFADPY[Nle]C-NH2 / III: Ac-C[tBuAla]PE[dK]PYCFADPY[Nle]C-NH2 (linker I:4-I:11-I:18, II:1-II:8-II:15, III:1-III:8-III:15 via TATA; linker I:N-II:5-III:5 via X1) [BCY12724] ?
1.5

###

molecular target: CD137 (Homo sapiens); test: CD137 reporter assay (Promega, Jurkat cells) in co-culture with EphA2-expressing tumor cells (A549, PC3, HT29); assay type: cell-based; set-up: host or cells: Jurkat reporter cells; settings: EC50, CD137 reporter coculture assay with PC3 tumor cells
Sequence (Q07011 24-255): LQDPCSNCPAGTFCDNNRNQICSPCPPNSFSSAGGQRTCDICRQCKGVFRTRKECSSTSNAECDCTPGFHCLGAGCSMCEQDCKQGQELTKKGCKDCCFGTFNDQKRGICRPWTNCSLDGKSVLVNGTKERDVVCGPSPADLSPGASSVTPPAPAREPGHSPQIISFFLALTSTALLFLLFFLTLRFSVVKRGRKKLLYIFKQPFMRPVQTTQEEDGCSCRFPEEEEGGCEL
Starred links: 1 amine or outer side, 2 acyl side, 3 side chain; linkers in the order of their positions; H or OH if unused. Positions of bridges follow the written chain, without caps; N, C: chain ends. Non-standard residues stand in square brackets, D forms with d. Chains are numbered I, II in the order given. X1 = O=C(CCOCCOCCOCCN(CCOCCOCCOCCn1cc(CCC(=O)[*:2])nn1)CCOCCOCCOCCn1cc(CCC(=O)[*:3])nn1)[*:1]; TATA = O=C(CC[*:1])N1CN(C(=O)CC[*:2])CN(C(=O)CC[*:3])C1; Hyp = O=C(O)[C@@H]1C[C@@H](O)CN1; hArg = N=C(N)NCCCC[C@H](N)C(=O)O; tBuAla = CC(C)(C)C[C@H](N)C(=O)O; Cba = N[C@@H](CC1CCC1)C(=O)O; Nle = CCCC[C@H](N)C(=O)O
Measurement type: EC50
Answer format: value, then unit.

Field: EC50 (CD137 (Homo sapiens)). Entry: I: [dA][hArg]DC[Hyp][Cba]VNPLCLEP[dD]WTC[dA]-NH2 / II: Ac-C[tBuAla]PE[dK]PYCFADPY[Nle]CA-NH2 / III: Ac-C[tBuAla]PE[dK]PYCFADPY[Nle]CA-NH2 (linker I:4-I:11-I:18, II:1-II:8-II:15, III:1-III:8-III:15 via TATA; linker I:N-II:5-III:5 via X1) [BCY13052]
0.21 nM

And then I: A[hArg]DC[Hyp]LVNPLCLEP[dD]W[hArg]C-NH2 / II: Ac-C[tBuAla]PE[dK]PYCFADPY[Nle]CA-NH2 / III: Ac-C[tBuAla]PE[dK]PYCFADPY[Nle]CA-NH2 (linker I:4-I:11-I:18, II:1-II:8-II:15, III:1-III:8-III:15 via TATA; linker I:N-II:5-III:5 via X1) [BCY13042] , what is it?
0.08 nM

Would you kindly repeat that for I: A[hArg]DC[Hyp]LVNPLCLEP[dA]WTC-NH2 / II: Ac-C[tBuAla]PE[dK]PYCFADPY[Nle]CA-NH2 / III: Ac-C[tBuAla]PE[dK]PYCFADPY[Nle]CA-NH2 (linker I:4-I:11-I:18, II:1-II:8-II:15, III:1-III:8-III:15 via TATA; linker I:N-II:5-III:5 via X1) [BCY13046] ?
0.17 nM
